Task for the reader: assign each of the following binders its reported SPOT peptide array binding signal intensity.
Target: CaBbc1
Assay: SPOT peptide array binding signal intensity (averaged, normalized) (arbitrary units (background-subtracted, floor 0; scale differs between SH3 domains)); higher = stronger binding of the SH3 domain to the peptide
Give bare numbers.

// below: answered binders
1. NLDRSKISLPDFDDE ... 8
2. PKRRAPPPVPKKPSS ... 1940

Using the record for `QNTPPLPPKPKSPHL` , report its SPOT peptide array binding signal intensity.
41.5
